System: E138K/Q148K
Assay: HIV double mutant assay in MT-4 cells
Assay type: cell-based
Details: E138K/Q148K vs wild type HXB2, MT-4 cells, 5 day incubation
endpoint-name: Double Mutant Shift (fold over wild type) (×)
Hi! Could you send only the number? It should be in ×, unit omitted.

Looking for the measured Double Mutant Shift (fold over wild type) of O=C(NCc1c(F)cc(F)cc1F)c1cn2c(c(O)c1=O)C(=O)N1CCCC[C@H]2C1 [Reference Compound A] , can you help?
13

Looking for the measured Double Mutant Shift (fold over wild type) of COC1=NO[C@@]2(CC[C@H](C)N3C[C@H]2n2cc(C(=O)NCc4ccc(F)cc4F)c(=O)c(O)c2C3=O)C1 , can you help?
4

Looking for the measured Double Mutant Shift (fold over wild type) of O=C(NCc1ccc(F)cc1F)c1cn2c(c(O)c1=O)C(=O)N1CCCC[C@H]2C1 [Reference Compound B] , can you help?
18

Looking for the measured Double Mutant Shift (fold over wild type) of CC1=NO[C@@]2(CC[C@H](C)N3C[C@H]2n2cc(C(=O)NCc4ccc(F)cc4F)c(=O)c(O)c2C3=O)C1 , can you help?
3

Looking for the measured Double Mutant Shift (fold over wild type) of O=C(NCc1ccc(F)cc1F)c1cn2c(c(O)c1=O)C(=O)N1CCCC3(CC3)[C@H]2C1 [Reference Compound C, reference compound] , can you help?
3

Looking for the measured Double Mutant Shift (fold over wild type) of C[C@H]1CCC[C@H]2CN1C(=O)c1c(O)c(=O)c(C(=O)NCc3ccc(F)cc3F)cn12 [Reference Compound D] , can you help?
6

---

# reported pEC50; entries follow
Test system: pLAI reporter virus
Test: microbe, parasite or virus in culture
Type: cell-based, HIV
Conditions: Human immunodeficiency virus 1, MT4, 72 h, read-out: RLUC CCM EC50
Here pEC50 is given on a logarithmic scale as minus log10 of the concentration in mol/L.

Solved entries (count: 5):
1) COC1=NO[C@@]2(CC[C@H](CF)N3C[C@H]2n2cc(C(=O)NCc4c(F)cc(F)cc4F)c(=O)c(O)c2C3=O)C1 [Example 99]	9.70
2) C[C@H]1CC[C@]2(CC(CO)=NO2)[C@H]2CN1C(=O)c1c(O)c(=O)c(C(=O)NCc3ccc(F)cc3F)cn12 [Example 16]	8.55
3) C[C@H]1CC[C@@]2(COC(Cc3ccccc3)O2)[C@H]2CN1C(=O)c1c(O)c(=O)c(C(=O)NCc3c(F)cc(F)cc3F)cn12 (stereo partly drawn) [Example 136]	8.77
4) C[C@H]1CC[C@]2(CC(C(F)F)=NO2)[C@H]2CN1C(=O)c1c(O)c(=O)c(C(=O)NCc3c(F)cc(F)cc3F)cn12 [Example 20]	9.52
5) CO[C@@H]1CS[C@]2(CC[C@H](C)N3C[C@H]2n2cc(C(=O)NCc4c(F)cc(F)cc4F)c(=O)c(O)c2C3=O)O1 (single isomer, unassigned) [170 (peak 2)]	9.70

Here's the next entry for you.
Looking for the measured pEC50 of CC1=NO[C@@]2(CC[C@H](C)N3C[C@H]2n2cc(C(=O)NCc4c(F)cc(F)cc4F)c(=O)c(O)c2C3=O)C1 [Example 3] , can you help?
9.70

---

Tested on: HIV-1 (IIIB)
Test: microbe, parasite or virus in culture
Assay type: cell-based
Settings: Human immunodeficiency virus 1, IIIB, MT4, 120 h, HIV-1 (IIIB) in MT-4 cells, 5 days incubation, Cell Titer Glo; read-out: MT4 EC50
endpoint-name: EC50

1) CC1=NO[C@@]2(CC[C@H](C)N3C[C@H]2n2cc(C(=O)NCc4ccc(F)c(Cl)c4F)c(=O)c(O)c2C3=O)[C@H]1C	0.6 nM
2) C[C@H]1CC[C@@]2(CN(C)C(=O)O2)[C@H]2CN1C(=O)c1c(O)c(=O)c(C(=O)NCc3c(F)cc(F)cc3F)cn12	78.6 nM

Here's the next entry for you.
// lookup EC50 | system=HIV-1 (IIIB) | key= C[C@H]1CC[C@@]2(CC(O)CO2)[C@H]2CN1C(=O)c1c(O)c(=O)c(C(=O)NCc3c(F)cc(F)cc3F)cn12 (stereo partly drawn)
8.4 nM

---

System: HIV-1 (IIIB)
Assay: microbe, parasite or virus in culture
Type: cell-based
Settings: Human immunodeficiency virus 1, IIIB, MT4, 120 h, HIV-1 (IIIB) in MT-4 cells, 5 days incubation, Cell Titer Glo; read-out: MT4 EC50
endpoint-name: EC50 (nM)
Hi! Could you send only the number? It should be in nM, unit omitted.

1) CC1=NO[C@@]2(CC[C@H](C)N3C[C@H]2n2cc(C(=O)NCc4ccc(F)cc4F)c(=O)c(O)c2C3=O)[C@H]1C [Example 26]	0.5

Looking for the measured EC50 of COC1=NO[C@@]2(CC[C@H](C)N3C[C@H]2n2cc(C(=O)NCc4cc(F)c(F)cc4F)c(=O)c(O)c2C3=O)C1 [Example 65] , can you help?
1.6

Looking for the measured EC50 of CC1=NO[C@@]2(CC[C@H](CF)N3C[C@H]2n2cc(C(=O)NCc4ccc(F)cc4F)c(=O)c(O)c2C3=O)C1 [Example 155] , can you help?
1

Looking for the measured EC50 of C[C@H]1CC[C@]2(CC(CCCCCl)=NO2)[C@H]2CN1C(=O)c1c(O)c(=O)c(C(=O)NCc3c(F)cc(F)cc3F)cn12 [Example 10] , can you help?
1.7

Looking for the measured EC50 of C[C@@H](F)C1=NO[C@@]2(CC[C@H](C)N3C[C@H]2n2cc(C(=O)NCc4c(F)cc(F)cc4F)c(=O)c(O)c2C3=O)C1 [Example 70] , can you help?
1.3

---

Test: in vitro
Settings: human, uninfected MT-4 cells
endpoint-name: CC50 at 5 days (µM)
Hi! Could you send only the number? It should be in µM, unit omitted.

1. COC1=NO[C@@]2(CC[C@H](C)N3C[C@H]2n2cc(C(=O)NCc4ncc(F)c(Cl)c4F)c(=O)c(O)c2C3=O)C1 [Example 64]	22.9
2. C[C@H]1CC[C@]2(CC(N3CCCC3)=NO2)[C@H]2CN1C(=O)c1c(O)c(=O)c(C(=O)NCc3c(F)cc(F)cc3F)cn12 [Example 75]	14.1

Here's the next entry for you.
Looking for the measured CC50 at 5 days of C[C@H]1CC[C@]2(CC(F)=NO2)[C@H]2CN1C(=O)c1c(O)c(=O)c(C(=O)NCc3c(F)cc(F)cc3F)cn12 [Example 82] , can you help?
5.46

---

System: pLAI reporter virus
Experiment: microbe, parasite or virus in culture
Assay type: cell-based, HIV
Conditions: Human immunodeficiency virus 1, MT4, 72 h, read-out: RLUC CCM EC50
endpoint-name: pEC50
Here pEC50 is given on a logarithmic scale as minus log10 of the concentration in mol/L.

1. C[C@H]1CC[C@]2(CC(=O)N(Cc3ccc(Br)cc3)O2)[C@H]2CN1C(=O)c1c(O)c(=O)c(C(=O)NCc3c(F)cc(F)cc3F)cn12	9.10
2. COC1=NO[C@@]2(C=C[C@H](C)N3C[C@H]2n2cc(C(=O)NCc4ccc(F)c(Cl)c4F)c(=O)c(O)c2C3=O)C1	9.70

Looking for the measured pEC50 of CO[C@H]1CS[C@@]2(CC[C@H](C)N3C[C@H]2n2cc(C(=O)NCc4c(F)cc(F)cc4F)c(=O)c(O)c2C3=O)O1 (single isomer, unassigned) [170 (peak 3)] , can you help?
9.52

---

# reported pEC50; entries follow
Tested on: HIV-1 (IIIB)
Test: microbe, parasite or virus in culture
Format: cell-based
Settings: Human immunodeficiency virus 1, IIIB, MT4, 120 h, HIV-1 (IIIB) in MT-4 cells, 5 days incubation, Cell Titer Glo; read-out: MT4 EC50
Here pEC50 is given on a logarithmic scale as minus log10 of the concentration in mol/L.

1. C[C@H]1CC[C@]2(CC(S(C)(=O)=O)=NO2)[C@H]2CN1C(=O)c1c(O)c(=O)c(C(=O)NCc3c(F)cc(F)cc3F)cn12 [Example 154]	8.38
2. C[C@H]1CCC[C@H]2CN1C(=O)c1c(O)c(=O)c(C(=O)NCc3ccc(F)cc3F)cn12 [Reference Compound D]	8.89
3. C[C@H]1CC[C@]2(CC(CC(F)(F)F)=NO2)[C@H]2CN1C(=O)c1c(O)c(=O)c(C(=O)NCc3c(F)cc(F)cc3F)cn12 [Example 9]	9.10
4. COC1=NS[C@]2(CC[C@H](C)N3C[C@H]2n2cc(C(=O)NCc4ccc(F)cc4F)c(=O)c(O)c2C3=O)C1 [Example 145]	8.42
5. COC1=NO[C@@]2(CC[C@@H](C)N3C[C@H]2n2cc(C(=O)NCc4c(F)cc(F)cc4F)c(=O)c(O)c2C3=O)C1 [Example 97]	8.60

Looking for the measured pEC50 of C[C@H]1CC[C@]2(CC(C#CC(C)(C)O)=NO2)[C@H]2CN1C(=O)c1c(O)c(=O)c(C(=O)NCc3c(F)cc(F)cc3F)cn12 [Example 81] , can you help?
8.68
